Value source: ChEMBL document CHEMBL5665443

- tested-on: Endonuclease 8-like 1 (Homo sapiens) (UniProt Q96FI4)
- Sequence (Q96FI4 whole entry): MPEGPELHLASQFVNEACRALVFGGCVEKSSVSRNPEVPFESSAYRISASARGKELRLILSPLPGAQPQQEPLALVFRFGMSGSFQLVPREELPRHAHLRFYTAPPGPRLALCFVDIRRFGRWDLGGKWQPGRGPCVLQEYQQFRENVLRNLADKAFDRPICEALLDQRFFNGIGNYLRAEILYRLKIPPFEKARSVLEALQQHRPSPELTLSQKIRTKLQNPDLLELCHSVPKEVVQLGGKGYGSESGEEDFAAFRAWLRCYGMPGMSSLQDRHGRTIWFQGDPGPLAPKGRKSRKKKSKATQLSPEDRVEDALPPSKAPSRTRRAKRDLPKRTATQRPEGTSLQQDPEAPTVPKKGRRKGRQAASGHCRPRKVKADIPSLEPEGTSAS
- test-context: Compound Concentration 10.0 uM, Hit No;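 note: fluorescence at 594 nm from quenched duplex DNA oligonucleotides released by NEIL1 cleavage and strand separation, reported as reduction of this enzyme activity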
- Description: Inhibition of NEIL1 by quantifying inhibition of NEIL1-mediated cleavage and dissociation of quenched duplex DNA oligonucleotides, measured as fluorescence at 594 nm.
value-type: inhibition
Field note: include the unit after the figure.

Example entries begin here.
CCOC(=O)C1=C(C)NC(C)=C(C(=O)OC)C1c1cccc([N+](=O)[O-])c1 (centres undefined)	1.49%
N=C(N)NCCC[C@@H](NC(=O)C(c1ccccc1)c1ccccc1)C(=O)NCc1ccc(CNC(N)=O)cc1	11.1%
CC1CCN(c2ccnc(NCc3cn(C)cn3)n2)CC1	1.98%

I am curious: what inhibition value has been reported for Oc1cc2c(cc1O)C(c1ccccc1)CNCC2 (centres undefined) ?
-0.945%
